Run description: qHTS assay to identify small molecule agonists of the estrogen receptor alpha (ER-alpha) signaling pathway in the presence of an antagonist - cell viability counter screen (AID 1259386);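 also: cells exposed to compounds for 22 h at 37 °C before the viability read; nearly all actives have a fitted effect of over 30% in size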
Measurement context: VM7Luc4E2 viability, CellTiter-Fluor fluorescence, 22 h; series mostly up to 92.4 µM
Inconclusive results are not listed. The source made the active and inactive calls. Calls follow the shape of the dose curve; as a rule, active = well fitted cell-killing curve with a large enough effect in the repeat runs; inconclusive = weak or mixed curves, or effect the other way; inactive = no such curve, though single readings can be large or run the other way.
Measured metric: outcome

Some solved cases for reference:
In [3]: df
Out[3]:
                                   compound    result
0        O=P(Oc1ccccc1)(Oc1ccccc1)Oc1ccccc1  inactive
1                                   N#CCCCl  inactive
2  C#C[C@]1(O)CC[C@H]2[C@@H]3CCC4=CC(=O)CC[C@]4(C)[C@H]3CC[C@@]21C  inactive
3          CCCCCCOC(=O)c1ccccc1C(=O)OCCCCCC  inactive
4                                 Nc1cccnc1  inactive
5                            CCN(N=O)C(N)=O  inactive

[Q] Request the reported outcome associated with c1ccc(N=Nc2ccccc2)cc1
[A] inactive

[Q] Request the reported outcome associated with N#CC(Br)Br
[A] inactive

[Q] Request the reported outcome associated with O=C(O)C(F)(F)C(F)(F)C(F)(F)C(F)(F)C(F)(F)C(F)(F)C(F)(F)F
[A] inactive

[Q] Request the reported outcome associated with COC(=O)c1sccc1S(=O)(=O)NC(=O)Nc1nc(C)nc(OC)n1
[A] inactive

[Q] Request the reported outcome associated with CCC(CC)Nc1c([N+](=O)[O-])cc(C)c(C)c1[N+](=O)[O-]
[A] inactive

[Q] Request the reported outcome associated with CNC(=O)Oc1cccc2c1OC(C)(C)O2
[A] inactive

[Q] Request the reported outcome associated with O=c1oc2ccccc2c(O)c1C(CC(O)c1ccc(-c2ccc(Br)cc2)cc1)c1ccccc1 (stereo not drawn)
[A] inactive

[Q] Request the reported outcome associated with Cc1ccc(OP(=O)(Oc2ccc(C)cc2)Oc2ccc(C)cc2)cc1
[A] inactive

[Q] Request the reported outcome associated with Nn1cnnc1
[A] inactive

[Q] Request the reported outcome associated with Nc1ccncc1
[A] inactive

[Q] Request the reported outcome associated with CCN(CC)N=O
[A] inactive

[Q] Request the reported outcome associated with Cc1cccc(N)c1N
[A] inactive

====

Run description: qHTS assay to identify small molecule antagonists of the retinoid acid receptor (RAR) signaling pathway - cell viability counter screen (AID 1159551); also: nearly all actives have a fitted effect of over 35% in size
Measurement context: C3RL4 cells viability, ATP luminescence (CellTiter-Glo), 6 h; series mostly up to 92.4 µM
Results filed as inconclusive are left out. Calls of active or inactive are those of the source. Calls follow the shape of the dose curve; as a rule, active = well fitted cell-killing curve with a large enough effect in the repeat runs; inconclusive = weak or mixed curves, or effect the other way; inactive = flat fitted curve, though single readings scatter.
Measured metric: outcome

In [3]: df
Out[3]:
                            query_smiles  measured_metric    result
0  O=[N+]([O-])c1ccc(O)c([N+](=O)[O-])c1          outcome  inactive
1                              Nc1cccnc1          outcome  inactive
2                            CC(C)NC(C)C          outcome  inactive
3      CCCCNC(=O)n1c(NC(=O)OC)nc2ccccc21          outcome  inactive
4     O=P(Oc1ccccc1)(Oc1ccccc1)Oc1ccccc1          outcome  inactive

[Q] Request the reported outcome associated with Oc1c(Cl)c(Cl)c(Cl)c(Cl)c1Cl
[A] inactive

[Q] Request the reported outcome associated with Cc1ccc(OP(=O)(Oc2ccc(C)cc2)Oc2ccc(C)cc2)cc1
[A] inactive

====

Run description: qHTS assay for small molecule disruptors of the mitochondrial membrane potential - cell viability (AID 720634);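 also: human HepG2 liver cancer cells; nearly all actives have a fitted effect of over 20% in size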
Measurement context: HepG2 viability, ATP luminescence (CellTiter-Glo), 1 h; series mostly up to 83.2 µM
Inconclusive results are not listed. The source made the active and inactive calls. Calls come from the whole dose curve.
Just give me one of these, please: y = active, n = inactive

>>> df
                               query_smiles  discrete_label
0     N[C@@H](Cc1ccc(N(CCCl)CCCl)cc1)C(=O)O               n
1                       C=CCc1ccc2c(c1)OCO2               n
2                             O=P(O)(O)CCCl               n
3                CCN(CC)C(=O)SCc1ccc(Cl)cc1               n
4  C[C@]12CCC(=O)C(O)=C1CC[C@@H]1[C@@H]2CC[C@]2(C)C(=O)CC[C@@H]12               n

[Q] Record lookup: outcome of this test for Nn1cnnc1 ?
[A] n

[Q] Record lookup: outcome of this test for Nc1ccc(Cl)c(Cl)c1 ?
[A] n

====

Measured target: Luciferin 4-monooxygenase (Photinus pyralis)
Run description: qHTS assay to identify small molecule inhibitors of firefly luciferase (AID 1224835); also: nearly all actives have a fitted effect of over 25% in size
Measurement context: purified P. pyralis luciferase, luminescence inhibition; series mostly up to 115 µM
Inconclusive results are not listed. Calls of active or inactive are those of the source. The call rests on the fitted dose curve; in most records, active means well fitted inhibition curve with a large enough effect in the repeat runs; inconclusive means weak or mixed curves; inactive means flat fitted curve, though single readings scatter.
Just give me one of these, please: label 1 = active, label 0 = inactive

# count of solved cases: 10
>>> df
                                   compound  discrete_label
0                                 NNC(=S)NN         label 0
1                             COP(=O)(OC)OC         label 0
2  CCC(C)c1cc([N+](=O)[O-])cc([N+](=O)[O-])c1O (centres undefined)         label 0
3  CCOc1cc(Oc2ccc(C(F)(F)F)cc2Cl)ccc1[N+](=O)[O-]         label 0
4                                 Nc1cccnc1         label 0
5  CCCCCCCCCCCOC(=O)c1ccccc1C(=O)OCCCCCCCCCCC         label 0
6              CC(O)CCO (centres undefined)         label 0
7  C#C[C@]1(O)CC[C@H]2[C@@H]3CCC4=CC(=O)CC[C@]4(C)[C@H]3CC[C@@]21C         label 0
8                           Cc1cc(C)cc(C)c1         label 0
9               CNC(=O)Oc1cccc2c1OC(C)(C)O2         label 0

[Q] Record lookup: outcome of this test for Cc1c(COC(=O)[C@@H]2[C@H](/C=C(\Cl)C(F)(F)F)C2(C)C)cccc1-c1ccccc1 ?
[A] label 0

[Q] Record lookup: outcome of this test for Nn1cnnc1 ?
[A] label 0

[Q] Record lookup: outcome of this test for C=CCN(CC=C)C(=O)C(Cl)Cl ?
[A] label 0

[Q] Record lookup: outcome of this test for COP(=S)(OC)Oc1cc(Cl)c(Cl)cc1Cl ?
[A] label 0

====

Measured target: Luciferin 4-monooxygenase (Photinus pyralis)
Run description: qHTS assay to identify small molecule inhibitors of firefly luciferase (AID 1224835); also: nearly all actives have a fitted effect of over 25% in size
Measurement context: purified P. pyralis luciferase, luminescence inhibition; series mostly up to 115 µM
Inconclusive results are not listed. Calls of active or inactive are those of the source. Calls come from the whole dose curve; as a rule, active = well fitted inhibition curve with a large enough effect in the repeat runs; inconclusive = weak or mixed curves; inactive = flat fitted curve, though single readings scatter.
Just give me one of these, please: active, inactive

# count of solved cases: 5
                                   compound  discrete_label
0              CNC(=O)N(C)c1nnc(C(C)(C)C)s1        inactive
1      CCCCCCCCOC(=O)c1ccccc1C(=O)OCCCCCCCC        inactive
2  ClC1C(Cl)C(Cl)C(Cl)C(Cl)C1Cl (stereo unspecified)        inactive
3                             Cc1cccc(N)c1N          active
4                                  OCC(O)CO        inactive

[Q] Record lookup: outcome of this test for CCCCN(CC)c1c([N+](=O)[O-])cc(C(F)(F)F)cc1[N+](=O)[O-] ?
[A] inactive

[Q] Record lookup: outcome of this test for Oc1cc(Cl)ccc1Oc1ccc(Cl)cc1Cl ?
[A] inactive

[Q] Record lookup: outcome of this test for O=[N+]([O-])c1c(Cl)c(Cl)c(Cl)c(Cl)c1Cl ?
[A] inactive

[Q] Record lookup: outcome of this test for C=CCc1ccc(OC)cc1 ?
[A] inactive

[Q] Record lookup: outcome of this test for Nc1ccc(-c2ccc(N)c(N)c2)cc1N ?
[A] active

[Q] Record lookup: outcome of this test for CCCCC(CC)COC(=O)Cl (stereo unspecified) ?
[A] inactive

[Q] Record lookup: outcome of this test for COc1ccc(C=O)cc1 ?
[A] inactive

[Q] Record lookup: outcome of this test for CCc1cccc(CC)c1N(COC)C(=O)CCl ?
[A] inactive

[Q] Record lookup: outcome of this test for Nc1c(Cl)cc([N+](=O)[O-])cc1Cl ?
[A] inactive

[Q] Record lookup: outcome of this test for O=C(O)C(F)(F)C(F)(F)C(F)(F)C(F)(F)C(F)(F)C(F)(F)C(F)(F)F ?
[A] inactive

[Q] Record lookup: outcome of this test for c1cc(OCC2CO2)ccc1Cc1ccc(OCC2CO2)cc1 (stereo unspecified) ?
[A] inactive

[Q] Record lookup: outcome of this test for C=C(C)C(=O)OCC1CO1 (stereo unspecified) ?
[A] inactive

[Q] Record lookup: outcome of this test for CCCCCCOC(=O)c1ccccc1C(=O)OCCCCCC ?
[A] inactive
